Recorded values, source the supplement of paper PMC6555819.

Listing of recorded PBM binding z-score by entry.
# Test system: RARg:RXRa (NR concentration 270 nM, RXRa partner concentration 90 nM)
# Assay Notes: PBM binding z-score (relative to random genomic background probes); higher = stronger binding; sequences stand for … in GC…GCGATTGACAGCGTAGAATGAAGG

Sequence Record | Reported Value
GCATATAGGTAACACAAGGTGAAAGTCCGATTGT | 0.82
TCTACTAGGTCAGTTGGTCAGCTAACGAGCTGCC | 2.74
CGAACTAGGTAAGAACAGGACAGTGAAGGATGAT | 0.0419
GCTGCTAGGTCAACTCATGGTCAGCTAAAGCTCG | 5.16

PBM binding z-score recorded for this sequence, `TCTAGCAGGCCAGAGCGTCACTCAAGAGGTACGG` , is -0.32

PBM binding z-score recorded for this sequence, `AGAACGAGGGCAATGAGTTTATAGCACGGGTGGC` , is 1.27

PBM binding z-score recorded for this sequence, `ATCGAAAGGACGAGGTGAGTATAGAGAAAGGGAA` , is 0.958

PBM binding z-score recorded for this sequence, `ACTATTAGTTGAGATGAGGGCAACCGATAGGTTG` , is 0.932

PBM binding z-score recorded for this sequence, `CCTCGGTGGACAGAAGGTCAGAGCTGTCCGCTTT` , is 2.3

PBM binding z-score recorded for this sequence, `GCTAGTTGGTTAGTAAAAGGTCACACACCGGTCG` , is 4.87

PBM binding z-score recorded for this sequence, `CCTACTGGGCAAAGGTCATTGATCAGTCAAAGCA` , is 6.27

PBM binding z-score recorded for this sequence, `CCGACTGGGGCAGAAAGGTTACCATTCCATCCGG` , is 1.35

PBM binding z-score recorded for this sequence, `GCTAGCAGGACATTTGGGTCACTCAATGACGGGC` , is 0.785

PBM binding z-score recorded for this sequence, `CCTTACTGGTCACGAGGTTATAGCACGACGAGCG` , is 2.5

PBM binding z-score recorded for this sequence, `AGTCAAAGTTCATCTAGGTAACGTGAGATATGCT` , is 5.63

PBM binding z-score recorded for this sequence, `GCAGACAGGTGAAACGCAGGTAACTCGGGGTGGC` , is 0.966

PBM binding z-score recorded for this sequence, `CCGACTGGGGCGAGGTTACCATAACGCACAGCCA` , is 0.854

PBM binding z-score recorded for this sequence, `AGAACGAGGGCACGCTGAGTTGATAGGAGAGTAG` , is 1.93

PBM binding z-score recorded for this sequence, `GCGCGGAGGACAAGGTCAGAGCTTTGTCCGTAGA` , is 3.09

PBM binding z-score recorded for this sequence, `ATCTCTATGTAAGACTCAGTTCAGTGAAGAACGC` , is -0.035

PBM binding z-score recorded for this sequence, `TCTAGTTGGTCAAGGGTCACACACTCGAAATGCG` , is 5.29

PBM binding z-score recorded for this sequence, `CGTCCAAGGTCAGCAGGTCAGTAAAAGCGACGTG` , is 6.32

###

# System: PPARg:RXRa IVT, anti-PPARg (NR concentration 270 nM, RXRa partner concentration 90 nM)
# Assay Notes: PBM binding z-score (relative to random genomic background probes); higher = stronger binding; sequences stand for … in GC…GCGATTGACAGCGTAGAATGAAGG
Listing of recorded PBM binding z-score by entry.
Answer as a number with no unit attached.

Observe how each entry below is paired with its result.
Sequence Record | Value Type | Reported Value
CCTTACGAGTCACGAGGTTATAGCACGACGAGCG | PBM binding z-score | 0.318
TCTATTAGTTGATTTGGGCAACCGAAACAGCGGA | PBM binding z-score | 0.616
CAGCCTAGGTCAGGGACAGTATAGGAGGAACGTT | PBM binding z-score | 1.68
AACTCTAGGTAAAGTTCAGTGAAAGATCGATAGA | PBM binding z-score | 2.21
GAAGACAGGTGAAACGCAGGTAACTCAGGGTGGC | PBM binding z-score | 1.15
GATACAGTGTCAAGGCCAGAGTACGCGTATTGAT | PBM binding z-score | 0.795
CAAACTAGGTCACGTAAGGTCAAAGTCGAATGAC | PBM binding z-score | 9.19
TGTCAAAGTTCAAAGGTAACGGAAGTATCCACAC | PBM binding z-score | 4.88
CCTACTGGGCCAAATGTCATTGATTCCAATGCTC | PBM binding z-score | 4.36
AGAATGAGGTTAAGCTCAGGGAAACAGAATACAT | PBM binding z-score | 2.98

Entry `CCTAGTGGGTCAAGGTCACACACGCTATAGGTAC` ; assay system PPARg:RXRa IVT, anti-PPARg (NR concentration 270 nM, RXRa partner concentration 90 nM); PBM binding z-score recorded at 8.11

Entry `GCTAGCAGGCCATTTCGGTCACTCAATGACGGGC` ; assay system PPARg:RXRa IVT, anti-PPARg (NR concentration 270 nM, RXRa partner concentration 90 nM); PBM binding z-score recorded at 0.325

Entry `CCTGCTATGTCAATGGTCAGCTAAAGCAGCTCGC` ; assay system PPARg:RXRa IVT, anti-PPARg (NR concentration 270 nM, RXRa partner concentration 90 nM); PBM binding z-score recorded at 0.02

Entry `TGAATGATGTTATAAGATCAGGGAACGTTGCAAA` ; assay system PPARg:RXRa IVT, anti-PPARg (NR concentration 270 nM, RXRa partner concentration 90 nM); PBM binding z-score recorded at -0.0889

Entry `GCTAGTTGGTCAGTAAAAGGTCACAAACCGGTCG` ; assay system PPARg:RXRa IVT, anti-PPARg (NR concentration 270 nM, RXRa partner concentration 90 nM); PBM binding z-score recorded at 2.83

Entry `TCTTGTAGATCAACAGGAGGTTAAGAAGGATCGA` ; assay system PPARg:RXRa IVT, anti-PPARg (NR concentration 270 nM, RXRa partner concentration 90 nM); PBM binding z-score recorded at 0.719

Entry `TCTGCTAGGTCACCGATGGTCAGCTAATCTGCTA` ; assay system PPARg:RXRa IVT, anti-PPARg (NR concentration 270 nM, RXRa partner concentration 90 nM); PBM binding z-score recorded at 4.81

Entry `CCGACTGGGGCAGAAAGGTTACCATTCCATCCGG` ; assay system PPARg:RXRa IVT, anti-PPARg (NR concentration 270 nM, RXRa partner concentration 90 nM); PBM binding z-score recorded at 1.83

Entry `CCTACTGGGCCAAGAAAGGTCATTGATTCAGTGA` ; assay system PPARg:RXRa IVT, anti-PPARg (NR concentration 270 nM, RXRa partner concentration 90 nM); PBM binding z-score recorded at 3.92

Entry `CAAACTAGGTCACGAAAAGTCAAAGTCGAATGAC` ; assay system PPARg:RXRa IVT, anti-PPARg (NR concentration 270 nM, RXRa partner concentration 90 nM); PBM binding z-score recorded at 9.2

Entry `ATACCACGGTGATCGTGAGGTCGTTGATACTAAC` ; assay system PPARg:RXRa IVT, anti-PPARg (NR concentration 270 nM, RXRa partner concentration 90 nM); PBM binding z-score recorded at 0.808

Entry `TCTATTAGTTGTAGGGCAACCGACGAGTCCGTTT` ; assay system PPARg:RXRa IVT, anti-PPARg (NR concentration 270 nM, RXRa partner concentration 90 nM); PBM binding z-score recorded at 2.66
